- System: PC-12
- method_notes: Antioxidant activity against H2O2-induced cell damage in rat PC12 cells assessed as cell viability at 1 uM after 24 hrs by MTT assay (reference value: 64.34 +/- 1.02 %)
- Format: functional
- measurement_conditions: PC-12, 24 h, read-out: Activity
Criterion: viability at 1 µM strictly less than 70%. Met: class 1. Not met: class 0.

Check out these entries, answers already filled in.
CC1=C2C[C@H]3[C@H](CC[C@]3(C)O)[C@@](C)(O)C[C@]2(O)OC1=O [ZEDOAROLIDE B]    class 0
CC(=O)CCc1c(C)cc(O)c2c1C(=O)OC2(C)C    class 1
Cc1cc(=O)c(C(C)C)cc2c1CC[C@]2(C)O    class 0

Let us examine a further case.
Does the reported viability at 1 µM of the following compound sit strictly below 70%? CC1=C2C[C@@H]3[C@H](CC[C@@]3(C)O)[C@](C)(O)C[C@H]2OC1=O
class 1

----------
- System: PC-12
- method_notes: Antioxidant activity against H2O2-induced cell damage in rat PC12 cells assessed as cell viability at 1 uM after 24 hrs by MTT assay (reference value: 64.34 +/- 1.02 %)
- Type: functional
- measurement_conditions: PC-12, 24 h, read-out: Activity
A collection of molecules and their measured viability at 1 µM
Numeric only. Scale: %

Fill blank: measured viability at 1 µM of the molecule CC1=CC(=O)C(=C(C)C)C[C@@]2(O)[C@H](C)CC[C@@H]12 is ____.
69.5

Now the molecule CC1=C2C[C@@]34O[C@]2(OC1=O)[C@H](O)[C@](C)(O)[C@@H]3CC[C@H]4C
73.7

----------
Listed compounds paired with reported viability at 5 µM
- Tested on: PC-12
- method_notes: Antioxidant activity against H2O2-induced cell damage in rat PC12 cells assessed as cell viability at 5 uM after 24 hrs by MTT assay (reference value: 64.34 +/- 1.02 %)
- Format: functional
- measurement_conditions: PC-12, 24 h, read-out: Activity
Just so you know, I need the unit written after the number.

Observe how each entry below is paired with its result.
CC1=CC(=O)C(=C(C)C)C[C@@]2(O)[C@H](C)CC[C@@H]12    68.8%
CC1=C2C[C@]34O[C@](C)(C[C@H]2OC1=O)[C@H]3CC[C@@H]4C    71.6%
CC(=O)CCc1c(C)cc(O)c2c1C(=O)OC2(C)C    68.7%
CC1=CC(=O)[C@]23C[C@]24[C@@]1(O)CC[C@]4(C)OC3(C)C    74.8%
CC(C)=C1C[C@]2(O)[C@@H](CC[C@@H]2C)[C@@](C)(O)CC1=O    64%
C[C@]12CCC[C@](C)(C(=O)O)[C@@H]1CC[C@@]13CC[C@@H]([C@H](O)[C@H]21)[C@]1(C)O[C@H]31    70.8%

So what does the record say about viability at 5 µM for Cc1cc2oc(=O)c(C)c-2cc2c1CC[C@H]2C ?
70.6%

Same read-out for CCO[C@]12C/C(C)=C/CC[C@@H](C)C(=O)CC1=C(C)C(=O)O2 ?
80.9%

Record: CC1=CC(=O)O[C@@]2(CC(=O)C(C)C)[C@@H](C)CC[C@@H]12
83.5%

Same question, CC1=C2CC[C@](C)(O)[C@H]2CC2=C(C)C(=O)O[C@@]2(O)C1 this time
76.8%

Please answer likewise for CC1=CC(=O)C(=C(C)C)C[C@H]2[C@H]1CC[C@]2(C)O
70%

Queued: CC1=C2CC[C@](C)(O)[C@H]2CC2=C(C)C(=O)OC2=C1
84%

Another compound to look at: C=C1CC[C@H]2C(C)(C)CCC[C@]2(C)[C@H]1CCC1=CC(=O)OC1
70.2%

Another compound to check: CC1=C2C[C@H]3[C@H](CC[C@]3(C)O)[C@@](C)(O)C[C@]2(O)OC1=O [ZEDOAROLIDE B]
77%

Consider next the compound CC1=C2C[C@@H]3[C@H](CC[C@@]3(C)O)[C@](C)(O)C[C@H]2OC1=O in the same way.
72%

Please do the same for CC1=C2C[C@H]3[C@H](CC[C@]3(C)O)[C@@](C)(O)C[C@@H]2OC1=O as well.
77.3%
